What Percent Effect was measured for each of the following?
ASSAY TARGET: Arginase-2, mitochondrial (Homo sapiens) (UniProt P78540)
Sequence (P78540 whole entry): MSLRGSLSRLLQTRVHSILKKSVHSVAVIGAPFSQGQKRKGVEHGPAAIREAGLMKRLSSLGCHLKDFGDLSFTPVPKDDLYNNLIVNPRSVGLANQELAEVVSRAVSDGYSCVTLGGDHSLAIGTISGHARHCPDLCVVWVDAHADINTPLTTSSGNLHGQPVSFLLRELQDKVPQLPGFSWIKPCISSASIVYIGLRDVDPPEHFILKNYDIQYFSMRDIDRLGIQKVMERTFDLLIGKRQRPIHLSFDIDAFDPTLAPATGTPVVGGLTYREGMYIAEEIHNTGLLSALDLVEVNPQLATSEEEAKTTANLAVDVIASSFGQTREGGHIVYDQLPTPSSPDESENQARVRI
TEST DETAILS: in vitro enzyme assay to detect the production of urea directly proportional to the activity of Arginase II
Format: functional
Set-up: scale not given: in the data most compounds retested in dose-response had high values
STATED CONDITIONS: 33.3 µM
All answers are understood in %, so give the number only.

Noted for Cc1cnn(CC2CCCN2C(=O)c2cc3ccccc3[nH]2)c1 (configuration not stated) : its Percent Effect reads -1.05

Noted for Cc1nc(CN2CCN(Cc3ccoc3)Cc3cccnc32)cs1 : its Percent Effect reads -4.45

Noted for Cc1ccc(NC(=O)C2CSCN2C(=O)c2cc[nH]n2)c(C)c1 (configuration not stated) : its Percent Effect reads -0.41

Noted for O=C(c1cccnc1)N1CCn2nnc(COc3cccnc3)c2C1 : its Percent Effect reads 4.45

Noted for Cn1cc(CNCCOc2ccc(F)c(F)c2)c(-c2cccnc2)n1 : its Percent Effect reads 0.744

Noted for CN(Cc1ccc(F)cc1)C(=O)CN1CCCC(Cn2cncn2)C1 (configuration not stated) : its Percent Effect reads 1.52

Noted for Cc1nc(CNCC2CCCN2c2cccnn2)cs1 (configuration not stated) : its Percent Effect reads 6.51

Noted for Cc1noc(NC(=O)c2ccc(Br)s2)n1 : its Percent Effect reads 3.96

Noted for NC(=O)c1ccc(CN2CCCC(N3CCCC3)C2)cc1 (configuration not stated) : its Percent Effect reads 5

Noted for Cc1ccc(C(=O)NS(=O)(=O)c2cccc3cnccc23)c(=O)[nH]1 : its Percent Effect reads 1.66

Noted for CCc1c(C(=O)NCC2CCS(=O)(=O)C2)cnn1-c1ccc(C)cc1 (configuration not stated) : its Percent Effect reads 4.94

Noted for CC1CN(C)c2ccccc2CN1C(=O)c1ccc[nH]1 (configuration not stated) : its Percent Effect reads 0.455

Noted for Cc1nc(C)n(CC2CCCN2Cc2cn(-c3ccccc3)nn2)n1 (configuration not stated) : its Percent Effect reads -1.77

Noted for CC(=O)NC1CCCN(C(=O)NCc2ccc(-c3ccn[nH]3)cc2)C1 (configuration not stated) : its Percent Effect reads 0

Noted for Cc1nc(N)cc(C2CN(C(=O)c3ccn(C)n3)CCO2)n1 (configuration not stated) : its Percent Effect reads -3.94

Noted for Cc1n[nH]c(C2CN(C(=O)c3ccnc(C4CC4)n3)CCO2)n1 (configuration not stated) : its Percent Effect reads 5.26

Noted for Cc1ncsc1-c1nnc(C2CCN(CC3CCCCC3)CC2)o1 : its Percent Effect reads 0.443

Noted for Cc1nc(N(C)C)nc2c1COCC21CCN(C(=O)NC(C)C)C1 (configuration not stated) : its Percent Effect reads -2.08

Noted for CN(C)Cc1nc(C(C)(C)NC(=O)C2CC(=O)N(CC3CC3)C2)no1 (configuration not stated) : its Percent Effect reads 3.14

Noted for N#Cc1cccc(CS(=O)(=O)NCC(O)Cc2ccccc2)c1 (configuration not stated) : its Percent Effect reads -3.12

Noted for CC(C)N1CCO[C@H]2CN(C(=O)c3ccc(N(C)C)cc3)C[C@H]21 : its Percent Effect reads 3.64

Noted for CN(CCn1nc2ccccn2c1=O)CC(=O)NC1CC1 : its Percent Effect reads 15.4

* * *

What Percent Effect was measured for each of the following?
ASSAY TARGET: Proteasome subunit beta (Trypanosoma cruzi) (UniProt O96673)
Sequence (O96673 as listed by the source): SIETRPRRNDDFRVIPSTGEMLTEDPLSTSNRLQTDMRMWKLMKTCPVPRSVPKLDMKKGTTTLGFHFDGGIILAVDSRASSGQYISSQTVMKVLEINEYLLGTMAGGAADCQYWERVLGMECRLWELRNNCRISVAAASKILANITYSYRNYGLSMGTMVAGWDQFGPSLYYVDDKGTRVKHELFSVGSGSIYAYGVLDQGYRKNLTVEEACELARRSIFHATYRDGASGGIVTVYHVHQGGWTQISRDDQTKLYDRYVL
TEST DETAILS: Trypanosoma cruzi proteasome chymotrypsin-like activity (TcProtChymo) assay.
Type: functional
Design: scale not given: in the data most compounds retested in dose-response had high values
STATED CONDITIONS: 9.37 µM
All answers are understood in %, so give the number only.

Noted for CCOc1ccc(C(C)NC(=O)N2CCC(C(N)=O)CC2)cc1OC (centres undefined) : its Percent Effect reads 14.7

Noted for CCc1noc(C(C)N(C)CC(=O)Nc2c(C)cccc2C)n1 (centres undefined) : its Percent Effect reads 8.7

Noted for COc1cccc(CNC(CN2CCN(C)CC2)c2ccccc2)c1 (centres undefined) : its Percent Effect reads 9.19

Noted for CN(C)[C@@H]1CCN(C(=O)NC2CCCC2)[C@H]1Cc1cnn(C)c1 : its Percent Effect reads 7.84

Noted for CN(C)CC(=O)N1C[C@@H]2CC[C@H](Oc3ccccc3Cl)[C@@H]2C1 : its Percent Effect reads -2.5

Noted for CCN(CC1CCCO1)C(=O)Nc1cc(OC)c(OC)cc1C (centres undefined) : its Percent Effect reads 9.26

Noted for CN(C)C(=O)N1CCN(Cc2noc(Cc3ccccc3)n2)CC1 : its Percent Effect reads -0.409

Noted for CC(C)c1cc(NC(=O)CN2CCc3cncnc3C2)on1 : its Percent Effect reads 4.39

Noted for CNC(=O)COc1ccc(CNCc2ccc(F)cc2F)cc1 : its Percent Effect reads 18.6

Each recorded value in this set is attributed to ChEMBL document CHEMBL3988442.
